PROCEDURE SUMMARY: Pharmacokinetic evaluation following a single oral and intravenous administration
Type: in vivo, CD1 mouse
CONDITION: CD1, mouse, plasma, iv, 1 mg/kg, Table 3, IV Dose: 1 mg/kg, 2 h, Mouse 2; read-out: Concentration
PROPERTY LABEL: concentration at 2 h (ng/mL)
Write it as a number; the unit ng/mL goes unstated.

What measured concentration at 2 h goes with CNCc1ccc(C[C@H](NC(C)=O)c2nnc(-c3cccc(OC(F)(F)F)c3)s2)cc1 ?
34.1

###

PROCEDURE SUMMARY: Pharmacokinetic evaluation following a single oral and intravenous administration
Assay type: in vivo, CD1 mouse
CONDITION: CD1, mouse, plasma, iv, 1 mg/kg, Table 10, IV Dose: 1 mg/kg, Mouse 1
PROPERTY LABEL: C0 (ng/mL)
Entry rule: numbers only, all in ng/mL.

Could you tell me which C0 is on file for CC(=O)N[C@@H](Cc1ccc(CN(C)C)cc1)c1nnc(-c2cccc(OC(F)(F)F)c2)s1 ?
97.9

Provenance of the data: patent US11033535B2
